inhibition for assorted compounds
- run.description: TLR3 IRF3 reporter activation blockers – cell-based, poly I:C stimulus, luciferase, 10K MLSCN set, primary screen (AID 602277)
- cond: HEK293-TLR3 RL24 IRF3 luciferase reporter, at 10 µM, stronger effect = higher value
Record the value in %, omitting the unit from your answer.

Some solved entries appear below for comparison.
>  <compound>
C/C(Cl)=C/Cn1c(SCc2ccc(Cl)cc2)nc2c1c(=O)[nH]c(=O)n2C

>  <unit.abbrev>
%

>  <inhibition>
12

$$$$
>  <compound>
COc1ccc(NC2c3ncccc3C(=O)N2Cc2ccccc2)c(OC)c1 (stereo not given)

>  <unit.abbrev>
%

>  <inhibition>
15.8

$$$$
>  <compound>
CCOc1cc(C(=O)N(C)Cc2cc3cc(OC)ccc3[nH]c2=O)cc(OCC)c1OCC

>  <unit.abbrev>
%

>  <inhibition>
18.6

$$$$

Per the record, CCN(CC(=O)NC1CCS(=O)(=O)C1)C(=O)C(c1ccccc1)c1ccccc1 (stereo not given) has inhibition of 5.12

Per the record, "CCSc1nnc(NC(=O)c2csc(C)c2)s1" has inhibition of -89.7

Per the record, "CCc1c(C)n([O-])c2c([n+]1=O)CCC2" has inhibition of 7.02

Per the record, "O=C(COc1ccccc1Cl)NCCCN1CCOCC1" has inhibition of 18.2

Per the record, "O=C(NC1CCCCC1)n1c(=O)oc2ccc(Cl)cc21" has inhibition of -13.8

Per the record, CCn1cc(C(=O)NCC2CCCO2)c(=O)c2cc(S(=O)(=O)N(C)C3CCCCC3)ccc21 (stereo not given) has inhibition of 33.2

Per the record, COc1ccc(Cn2nnnc2C(c2cc3cc(C)cc(C)c3[nH]c2=O)N2CCOCC2)cc1 (stereo not given) has inhibition of 24.9

Per the record, "COc1ccc(N(CC(=O)NCCSC(C)(C)C)S(C)(=O)=O)c(OC)c1" has inhibition of 20.9

Per the record, "Cc1nc2ncnn2c(Nc2ccc3c(c2)OCCO3)c1C" has inhibition of -0.101

Per the record, COc1cc2c(c(OC)c1)C(c1ccncc1)CC(=O)N2 (stereo not given) has inhibition of 3.48

Per the record, "O=S(=O)(c1ccc(N2CCN(c3ccc(F)cc3)CC2)cc1)N1CCCC1" has inhibition of 19.7

====

nuclei count for assorted compounds
- run.description: reduction of polyQ htt aggregates in cells – imaging, exon1htt(103Q)mCFP cells, high-content imaging, primary screen (AID 483);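 note: compound exposure lasted 3 days before fixation; percent of the per-plate median nuclei count of sample wells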
- cond: exon1htt(103Q)mCFP cell line, aggregate imaging, at 2 µM; measured here: cell count, toxicity
Record the value in %, omitting the unit from your answer.

>  <compound>
NC(=O)c1cccc(S(=O)(=O)N2CCCCC2)c1

>  <unit.abbrev>
%

>  <nuclei count>
105

$$$$

Per the record, "CCCCP(=O)(CCCC)Cc1ccccc1O" has nuclei count of 91.9

Per the record, "CN(Cc1ccco1)C(=O)Cn1c(=O)oc2cc(S(=O)(=O)NCc3ccccc3)ccc21" has nuclei count of 104

Per the record, "CCOC(=O)N1CCC(NC(=O)c2ccc(CS(=O)(=O)c3c(Cl)cccc3Cl)o2)CC1" has nuclei count of 94.3

Per the record, COc1ccc(NC(=O)C(C)NS(=O)(=O)c2ccc(NC(C)=O)cc2)cc1Cl (stereo not given) has nuclei count of 105
